- Tested on: HOP62 NSCLC cell line
- testDescription: MTT cell cytotoxicity assay, HOP62
- Type: cell-based, human
- experimentalContext: Homo sapiens, HOP-62, 72 h, 72 h exposure, read-out: Cytotoxicity (IC50s)
reportedEndpoint: IC50 (µM)
One number for each entry, in µM.

INSERT INTO measurements (molecule, targetortestsystem, measvalue) VALUES
  ('O=c1[nH]cc(F)c(=O)[nH]1', 'HOP62 NSCLC cell line', 78);

For every record below, what is its IC50?
1. Nc1nc2[nH]cc(CCc3ccc(C(=O)N[C@@H](CCC(=O)O)C(=O)O)cc3)c2c(=O)[nH]1
2. CN(Cc1cnc2nc(N)nc(N)c2n1)c1ccc(C(=O)N[C@@H](CCC(=O)O)C(=O)O)cc1 [Methotrexate]

1. 0.029
2. 0.15

====

- System: HEP2 head and neck cancer cell line
- testDescription: MTT cell cytotoxicity assay, HEP2
- Format: cell-based, human
- experimentalContext: 72 h exposure, read-out: Cytotoxicity (IC50s)
Please respond with reported IC50 for every item in the list.
One number for each entry, in µM.

INSERT INTO assay_data (compound, measvalue) VALUES
  ('C#CCC(Cc1cnc2nc(N)nc(N)c2n1)c1ccc(C(=O)N[C@@H](CCC(=O)O)C(=O)O)cc1 (mixture of isomers) [Pralatrexate]', 0.05);

Here is the next item to consider.
What measured IC50 goes with C[C@H]1O[C@@H](n2cc(F)c(=O)[nH]c2=O)[C@H](O)[C@@H]1O ?
250

====

- Tested on: HEP2 head and neck cancer cell line
- testDescription: MTT cell cytotoxicity assay, HEP2
- Assay type: cell-based, human
- experimentalContext: Homo sapiens, HEp-2, 72 h, 72 h exposure, read-out: Cytotoxicity (IC50s)
reportedEndpoint: pIC50
Give bare numbers, as −log10 of the molar value.

Example results:
INSERT INTO assay_data (compound, measvalue) VALUES
  ('O=c1[nH]cc(F)c(=O)[nH]1', 4.07),
  ('Nc1nc2[nH]cc(CCc3ccc(C(=O)N[C@@H](CCC(=O)O)C(=O)O)cc3)c2c(=O)[nH]1', 7.00);

Here is the next item to consider.
What measured pIC50 goes with CN(Cc1cnc2nc(N)nc(N)c2n1)c1ccc(C(=O)N[C@@H](CCC(=O)O)C(=O)O)cc1 [Methotrexate] ?
6.60

====

- Tested on: HOP62 NSCLC cell line
- testDescription: MTT cell cytotoxicity assay, HOP62
- Assay type: cell-based, human
- experimentalContext: 72 h exposure, read-out: Cytotoxicity (IC50s)
reportedEndpoint: IC50

What measured IC50 goes with C[C@H]1O[C@@H](n2cc(F)c(=O)[nH]c2=O)[C@H](O)[C@@H]1O [5′-DFUR] ?
380 µM

====

- System: PC3 prostate cancer cell line
- testDescription: MTT cell cytotoxicity assay, PC3
- Format: cell-based, human
- experimentalContext: 72 h exposure, read-out: Cytotoxicity (IC50s)
reportedEndpoint: IC50
Don't forget the unit after the value.

What measured IC50 goes with C[C@H]1O[C@@H](n2cc(F)c(=O)[nH]c2=O)[C@H](O)[C@@H]1O ?
25 µM

====

- System: DU145 prostate cancer cell line
- testDescription: MTT cell cytotoxicity assay, DU145
- Format: cell-based, human
- experimentalContext: naïve/parental, 72 h exposure, listed as 10-propargyl-10-deazaminopterin, read-out: Cytotoxicity (IC50s)
reportedEndpoint: pIC50
Numbers only, as −log10 of the molar value.

What measured pIC50 goes with C#CCC(Cc1cnc2nc(N)nc(N)c2n1)c1ccc(C(=O)N[C@@H](CCC(=O)O)C(=O)O)cc1 (mixture of isomers) [Pralatrexate] ?
8.00

====

- System: HCT116 colon cancer cell line
- testDescription: MTT cell cytotoxicity assay, HCT116
- Format: cell-based, human
- experimentalContext: 72 h exposure, read-out: Cytotoxicity (IC50s)
reportedEndpoint: IC50 (µM)
Give bare numbers, in µM.

Checklist item: IC50 tested on HCT116 colon cancer cell line, entry C[C@H]1O[C@@H](n2cc(F)c(=O)[nH]c2=O)[C@H](O)[C@@H]1O , value?
45

====

- System: DU145 prostate cancer cell line
- testDescription: MTT cell cytotoxicity assay, DU145
- Format: cell-based, human
- experimentalContext: naïve/parental, 72 h exposure, read-out: Cytotoxicity (IC50s)
reportedEndpoint: IC50 (µM)
One number for each entry, in µM.

What measured IC50 goes with C[C@H]1O[C@@H](n2cc(F)c(=O)[nH]c2=O)[C@H](O)[C@@H]1O [5′-DFUR] ?
28

====

- Test system: SCC61 head and neck cancer cell line
- testDescription: MTT cell cytotoxicity assay, SCC61
- Assay type: cell-based, human
- experimentalContext: 72 h exposure, read-out: Cytotoxicity (IC50s)
- Description: A panel of colon (HT29, HCT116, COLO205, HCC2998), breast (MCF7, MDA-MB-435), lung (HOP62, HOP92), ovarian (OVCAR3, IGROV1), prostate (DU145, PC3), and head and neck (SCC61, HEP2, SQ20B) human cancer cell lines was purchased from the ATCC (Rockville, Md.) and National Cancer Institute collections. […] Cell viability was determined using the MTT assay, which was carried out as described previously (Hansen, 1989). […]
reportedEndpoint: pIC50
One number for each entry, as −log10 of the molar value.

What measured pIC50 goes with C[C@H]1O[C@@H](n2cc(F)c(=O)[nH]c2=O)[C@H](O)[C@@H]1O ?
5.49

====

- System: SQ20B head and neck cancer cell line
- testDescription: MTT cell cytotoxicity assay, SQ20B
- Assay type: cell-based, human
- experimentalContext: Homo sapiens, SQ20B, 72 h, 72 h exposure, read-out: Cytotoxicity (IC50s)
Please respond with reported IC50 for every item in the list.
One number for each entry, in nM.

For every record below, what is its IC50?
1. O=c1[nH]cc(F)c(=O)[nH]1 [5-FU, 5-fluorouracil]
2. Nc1nc2[nH]cc(CCc3ccc(C(=O)N[C@@H](CCC(=O)O)C(=O)O)cc3)c2c(=O)[nH]1 [Pemetrexed, pemetrexed]
3. CN(Cc1cnc2nc(N)nc(N)c2n1)c1ccc(C(=O)N[C@@H](CCC(=O)O)C(=O)O)cc1 [Methotrexate]

[10000, 25, 260]

====

- Test system: HT29 colon cancer cell line
- testDescription: MTT cell cytotoxicity assay, HT29
- Type: cell-based, human
- experimentalContext: 72 h exposure, read-out: Cytotoxicity (IC50s)
reportedEndpoint: IC50 (µM)
Answers are plain numbers, in µM.

Checklist item: IC50 tested on HT29 colon cancer cell line, entry C[C@H]1O[C@@H](n2cc(F)c(=O)[nH]c2=O)[C@H](O)[C@@H]1O [5′-DFUR] , value?
16
